Data provenance is paper PMC6093650.

Molecular target: HERG-1 (Homo sapiens)
Sequence (Q12809 whole entry): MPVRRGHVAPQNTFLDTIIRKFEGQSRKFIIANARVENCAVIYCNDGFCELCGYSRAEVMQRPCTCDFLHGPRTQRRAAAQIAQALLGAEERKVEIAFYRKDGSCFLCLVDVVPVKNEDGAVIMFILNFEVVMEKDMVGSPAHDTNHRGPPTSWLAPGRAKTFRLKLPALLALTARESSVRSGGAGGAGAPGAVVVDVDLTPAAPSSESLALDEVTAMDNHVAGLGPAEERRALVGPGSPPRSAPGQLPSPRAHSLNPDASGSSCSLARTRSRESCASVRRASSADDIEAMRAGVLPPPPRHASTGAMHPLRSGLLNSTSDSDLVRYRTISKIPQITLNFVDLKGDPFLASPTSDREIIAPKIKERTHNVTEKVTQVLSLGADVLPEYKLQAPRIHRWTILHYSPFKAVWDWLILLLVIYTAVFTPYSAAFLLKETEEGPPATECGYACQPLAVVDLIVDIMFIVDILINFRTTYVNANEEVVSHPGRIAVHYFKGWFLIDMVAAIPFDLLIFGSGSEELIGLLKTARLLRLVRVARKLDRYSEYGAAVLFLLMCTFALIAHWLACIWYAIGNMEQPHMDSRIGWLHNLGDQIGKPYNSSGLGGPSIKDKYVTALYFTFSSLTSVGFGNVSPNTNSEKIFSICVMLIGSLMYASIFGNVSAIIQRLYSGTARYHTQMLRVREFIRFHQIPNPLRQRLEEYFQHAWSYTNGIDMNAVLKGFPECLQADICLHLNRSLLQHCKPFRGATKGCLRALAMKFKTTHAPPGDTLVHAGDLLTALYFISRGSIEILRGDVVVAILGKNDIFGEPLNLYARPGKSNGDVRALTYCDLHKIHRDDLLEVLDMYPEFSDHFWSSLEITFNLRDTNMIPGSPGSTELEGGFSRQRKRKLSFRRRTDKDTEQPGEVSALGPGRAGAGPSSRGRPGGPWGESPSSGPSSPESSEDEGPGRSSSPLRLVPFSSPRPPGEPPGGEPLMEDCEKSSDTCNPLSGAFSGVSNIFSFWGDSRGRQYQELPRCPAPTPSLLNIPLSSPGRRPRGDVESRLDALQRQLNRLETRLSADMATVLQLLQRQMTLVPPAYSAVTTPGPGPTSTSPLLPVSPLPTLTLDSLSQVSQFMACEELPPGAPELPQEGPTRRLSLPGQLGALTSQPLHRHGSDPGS
Assay: whole-cell patch-clamp of HERG-1 tail currents in 293T cells
Conditions: outward tail current, n = 5
Reported endpoint: pIC50
Give bare numbers, as −log10 of the molar value.

**Query** Returns the measured pIC50 for the input compound. Input: CC(C)=CCC/C(C)=C/Cc1cc2ccc(=O)oc2cc1O
**Result** 3.67

====

Biological target: Kv1.4 (Homo sapiens, UniProt P22459)
Sequence (P22459 whole entry): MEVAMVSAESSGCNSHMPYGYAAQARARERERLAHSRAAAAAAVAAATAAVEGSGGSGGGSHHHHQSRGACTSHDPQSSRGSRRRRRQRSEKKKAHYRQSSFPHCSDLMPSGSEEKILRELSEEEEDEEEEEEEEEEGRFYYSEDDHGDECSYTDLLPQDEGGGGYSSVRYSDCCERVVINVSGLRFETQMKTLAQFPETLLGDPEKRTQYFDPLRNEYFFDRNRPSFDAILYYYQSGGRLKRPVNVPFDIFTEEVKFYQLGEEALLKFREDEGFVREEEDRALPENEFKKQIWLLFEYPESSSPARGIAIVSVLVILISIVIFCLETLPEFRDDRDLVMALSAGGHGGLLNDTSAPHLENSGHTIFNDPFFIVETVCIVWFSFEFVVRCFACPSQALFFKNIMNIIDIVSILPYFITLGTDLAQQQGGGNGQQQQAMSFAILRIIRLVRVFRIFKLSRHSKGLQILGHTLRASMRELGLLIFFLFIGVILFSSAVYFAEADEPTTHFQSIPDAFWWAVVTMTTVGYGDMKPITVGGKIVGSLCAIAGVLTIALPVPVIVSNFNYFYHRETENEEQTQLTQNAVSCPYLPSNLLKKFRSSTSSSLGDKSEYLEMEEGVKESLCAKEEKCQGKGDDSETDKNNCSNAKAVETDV
Assay: whole-cell patch-clamp of Kv1.4 currents in 293T cells
Conditions: n = 5
Reported endpoint: pIC50
Answers are plain numbers, as −log10 of the molar value.

**Query** Returns the measured pIC50 for the input compound. Input: CC(C)=CCC/C(C)=C/Cc1cc2ccc(=O)oc2cc1O
**Result** 3.57
